Hello, the source for this data is PubChem BioAssay AID623868, in case you need it.

manual score reference
- Experiment summary: thallium influx changes without GIRK channels – cell-based, HEK-293 rmGlu8, no GIRK, thallium flux, counter-screen for GIRK activator project, confirmation (AID 623868);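 also: extra codes mark interference with 3 for fluorescent and 4 for baseline rise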
- Condition set: thallium flux fluorescence, at 10 µM, actives lie on both sides, codes: 1 enhancer, -1 blocker, 0 none, thallium stimulus containing EC20 glutamate
Hit rate of the full screen: of about 2,100 compounds, about 760 (36%) were called active. The list is a sample of the results.
Outcome measure: manual score

1) COc1ccc(CCC(=O)NCc2cnn(C)c2)cc1
0
2) CCOC(=O)c1ccccc1Nc1cn(C(C)=O)c2ccccc12
0
3) CC1=C(C)C(c2ccccc2)NC(=S)N1 (stereo not drawn)
0
4) CC/C(=N\NC(=S)Nc1ccc(OC)cc1)c1ccc(OC(F)F)cc1
1
5) CC(=O)Nc1ccc(S(=O)(=O)NC(C(=O)O)C2=CCC=CC2)cc1 (stereo not drawn)
0
6) COC(=O)c1ccc(Cl)c(NC(=O)CN2CCN(C)CC2)c1
0
7) COc1ccc(C(=S)Nc2ccc(N(C)C)cc2)cc1
0
8) CC12CCC(C(=O)N(CSC(=S)N/N=C\c3ccccc3O)C1=O)C2(C)C (stereo not drawn)
1

====

- Experiment summary: thallium influx changes without GIRK channels – cell-based, HEK-293 rmGlu8, no GIRK, thallium flux, counter-screen for GIRK activator project, confirmation (AID 623868);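 also: extra codes mark interference with 3 for fluorescent and 4 for baseline rise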
- Condition set: thallium flux fluorescence, at 10 µM, actives lie on both sides, codes: 1 enhancer, -1 blocker, 0 none, thallium stimulus containing EC20 glutamate
The campaign covered roughly 2,100 compounds. About 760 (36%) were called active.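 How the source made its calls: active means thallium-flux fluorescence traces judged by eye to show enhanced or reduced glutamate response, manual score 1 or -1, so both directions (some results past the limit were not filed as active); inactive means the rest, including fluorescent or raised-baseline compounds.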 The list is a sample of the results.
Outcomes: active, inactive

1) O=C(NC(=S)N(CCc1ccccc1)CCc1ccccc1)c1ccco1
active
2) CC1CCCCN1CCCn1c(=S)[nH]c2ccccc2c1=O (stereo not given)
inactive
3) CCC1CCCCN1CCCn1c(=S)[nH]c2ccccc2c1=O (stereo not given)
active
4) CC(C)(C)c1csc(NC(=O)c2ccc3nccnc3c2)n1
inactive
5) O=C(Nc1nc(-c2ccccn2)cs1)c1ccc(Br)s1
active

====

- Experiment summary: thallium influx changes without GIRK channels – cell-based, HEK-293 rmGlu8, no GIRK, thallium flux, counter-screen for GIRK activator project, confirmation (AID 623868);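 also: extra codes mark interference with 3 for fluorescent and 4 for baseline rise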
- Condition set: thallium flux fluorescence, at 10 µM, actives lie on both sides, codes: 1 enhancer, -1 blocker, 0 none, thallium stimulus containing EC20 glutamate
Out of some 2,100 compounds screened, about 760 (36%) were called active. These entries were drawn from the full list.
As shown below, each of these compounds has a reported manual score value.
Outcome measure: manual score

1) O=c1c2c(nc3c(-c4ccc(Cl)cc4)c[nH]n13)CCCC2
1
2) O=C(NC(=S)Nc1ccc(Cl)cn1)c1cccs1
1
3) CCc1nnc(NC(=O)CSc2nnc(C3CCCCC3)n2-c2cccc(Cl)c2)s1
-0.5
4) O=C(NC(=S)Nc1ccc2c(c1)OCO2)c1ccccc1
1
5) C/C(=N\NC(=S)Nc1ccc(F)cc1)c1ccc2c(c1)OCCO2
1
6) Cc1ccc2cccc(NC(=S)NC(=O)c3ccnn3C)c2n1
0
7) CCNC(=S)N/N=C1\C(=O)c2cccc3cccc1c23
1
8) CCOC(=O)CN(C(=O)CSc1nnc(Cc2ccccc2)n1-c1ccc(C)cc1)c1ccccc1
0
9) O=C(NC(=S)Nc1ccc2c(c1)OCCO2)c1ccccc1
1
10) COc1cc(C(=O)NC2CC3CCCC(C2)N3CC(=O)Nc2ccccc2)cc(OC)c1OC (stereo not given)
-1
